biological target: hERG (Homo sapiens, UniProt Q12809); test: Patch clamp assay (hERG tail currents, whole-cell); details: 10 μM compound
Sequence (Q12809 whole entry): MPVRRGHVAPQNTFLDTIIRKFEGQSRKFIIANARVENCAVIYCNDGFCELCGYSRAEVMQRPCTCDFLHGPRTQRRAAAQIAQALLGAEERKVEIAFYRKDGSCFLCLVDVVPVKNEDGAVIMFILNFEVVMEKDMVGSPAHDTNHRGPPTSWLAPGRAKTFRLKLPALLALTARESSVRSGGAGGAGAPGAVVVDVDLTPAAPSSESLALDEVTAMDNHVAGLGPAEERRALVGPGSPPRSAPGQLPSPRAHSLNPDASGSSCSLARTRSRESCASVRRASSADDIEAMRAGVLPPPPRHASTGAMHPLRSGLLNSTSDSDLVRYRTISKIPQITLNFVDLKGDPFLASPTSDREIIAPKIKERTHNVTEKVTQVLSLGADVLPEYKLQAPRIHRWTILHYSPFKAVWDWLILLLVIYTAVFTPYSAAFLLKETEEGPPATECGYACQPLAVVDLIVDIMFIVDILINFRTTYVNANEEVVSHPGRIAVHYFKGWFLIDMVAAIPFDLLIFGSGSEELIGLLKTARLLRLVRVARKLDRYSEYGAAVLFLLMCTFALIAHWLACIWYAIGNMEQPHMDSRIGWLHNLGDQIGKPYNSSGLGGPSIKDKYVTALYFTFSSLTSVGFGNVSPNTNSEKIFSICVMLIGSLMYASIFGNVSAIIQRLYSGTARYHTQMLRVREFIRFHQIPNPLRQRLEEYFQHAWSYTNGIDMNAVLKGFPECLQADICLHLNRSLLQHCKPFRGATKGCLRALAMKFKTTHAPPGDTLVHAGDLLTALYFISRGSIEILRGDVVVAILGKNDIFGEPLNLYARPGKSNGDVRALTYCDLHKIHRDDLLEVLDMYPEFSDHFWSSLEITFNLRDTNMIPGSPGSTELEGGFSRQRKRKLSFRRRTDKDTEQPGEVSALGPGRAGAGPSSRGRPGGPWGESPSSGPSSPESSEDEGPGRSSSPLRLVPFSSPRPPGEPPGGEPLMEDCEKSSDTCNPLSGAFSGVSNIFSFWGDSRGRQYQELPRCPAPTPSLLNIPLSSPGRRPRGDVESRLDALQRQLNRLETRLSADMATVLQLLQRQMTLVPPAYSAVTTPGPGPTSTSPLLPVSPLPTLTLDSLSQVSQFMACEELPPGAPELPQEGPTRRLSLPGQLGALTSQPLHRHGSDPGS
MEASURED_QUANTITY: hERG % Remaining

Examples with answers:
[[record]]
cpd_smiles = "Cc1ncc(S(=O)(=O)N[C@@H]2CC[C@@H](CN3CCC4(CC3)CN(c3ncncc3Oc3ccc(F)cc3C(=O)N(C(C)C)C(C)C)C4)OC2)o1"
measured_on = "hERG (Homo sapiens, UniProt Q12809)"
observed_measurement = "++ (233% and ≤66%)"

[[record]]
cpd_smiles = "CCN(C(=O)c1cc(F)ccc1Oc1cncnc1N1CC2(CCN(C[C@@H]3CC[C@@H](NS(=O)(=O)c4ccccc4)CO3)CC2)C1)C(C)C"
measured_on = "hERG (Homo sapiens, UniProt Q12809)"
observed_measurement = "++ (233% and ≤66%)"

[[record]]
cpd_smiles = "CCN(C(=O)c1cc(F)ccc1Oc1cncnc1N1CC2(CCN(C[C@@H]3CC[C@@H](NS(=O)(=O)N4CCOCC4)CO3)CC2)C1)C(C)C"
measured_on = "hERG (Homo sapiens, UniProt Q12809)"
observed_measurement = "+++ (≥66%)"

[[record]]
cpd_smiles = "CC(C)N(CC(F)F)C(=O)c1cc(F)ccc1Oc1cncnc1N1CC2(CCN(C[C@@H]3CC[C@@H](NS(=O)(=O)C4CC4)CO3)CC2)C1"
measured_on = "hERG (Homo sapiens, UniProt Q12809)"
observed_measurement = "+++ (≥66%)"

[[record]]
cpd_smiles = "CC(C)N(C(=O)c1cc(F)ccc1Oc1cncnc1N1CC2(CCN(C[C@@H]3CC[C@@H](NS(=O)(=O)c4cnn(C5CC5)c4)CO3)CC2)C1)C(C)C"
measured_on = "hERG (Homo sapiens, UniProt Q12809)"
observed_measurement = "+++ (≥66%)"


The measured hERG % Remaining associated with CCN(CC)S(=O)(=O)N[C@@H]1CC[C@@H](CN2CCC3(CC2)CN(c2ncncc2Oc2ccc(F)cc2C(=O)N(C(C)C)C2CC(F)(F)C2)C3)OC1 reads + (<33%)

The measured hERG % Remaining associated with CCS(=O)(=O)N[C@@H]1CC[C@@H](CN2CCC3(CC2)CN(c2ncncc2Oc2ccc(F)cc2C(=O)N(CCC#N)C(C)C)C3)OC1 reads +++ (≥66%)

The measured hERG % Remaining associated with CC(C)N(CC(F)F)C(=O)c1cc(F)ccc1Oc1cncnc1N1CC2(CCN(C[C@@H]3CC[C@@H](NS(=O)(=O)N4CCOCC4)CO3)CC2)C1 reads +++ (≥66%)

The measured hERG % Remaining associated with CCN(C(=O)c1cc(F)ccc1Oc1cncnc1N1CC2(CCN(C[C@@H]3CC[C@@H](NS(=O)(=O)N4CCC[C@H]4C)CO3)CC2)C1)C(C)C reads ++ (233% and ≤66%)

The measured hERG % Remaining associated with CCN(CC)S(=O)(=O)N[C@@H]1CC[C@@H](CN2CCC3(CC2)CN(c2ncncc2Oc2ccc(F)cc2C(=O)N(C(C)C)[C@H]2CCOC2)C3)OC1 reads ++ (233% and ≤66%)

The measured hERG % Remaining associated with CCS(=O)(=O)N[C@@H]1CC[C@@H](CN2CCC3(CC2)CN(c2ncncc2Oc2ccc(F)cc2C(=O)N(C(C)C)[C@H]2C[C@@H](F)C2)C3)OC1 reads +++ (≥66%)

The measured hERG % Remaining associated with CCN(C(=O)c1cc(F)ccc1Oc1cncnc1N1CC2(CCN(C[C@@H]3CC[C@@H](NS(=O)(=O)c4ccccc4OC)CO3)CC2)C1)C(C)C reads ++ (233% and ≤66%)

The measured hERG % Remaining associated with CCS(=O)(=O)N[C@@H]1CC[C@@H](CN2CCC3(CC2)CN(c2ncncc2Oc2ccc(F)cc2C(=O)N(C(C)C)C2CC(F)(F)C2)C3)OC1 reads +++ (≥66%)

The measured hERG % Remaining associated with CC(C)N(C(=O)c1cc(F)ccc1Oc1cncnc1N1CC2(CCN(C[C@@H]3CC[C@@H](NS(=O)(=O)N(C)C)CO3)CC2)C1)[C@H]1CCOC1 reads +++ (≥66%)

The measured hERG % Remaining associated with CCN(C(=O)c1cc(F)ccc1Oc1cncnc1N1CC2(CCN(C[C@@H]3CC[C@@H](NC(=O)NCC(F)(F)F)CO3)CC2)C1)C(C)C reads + (<33%)

The measured hERG % Remaining associated with CC(C)N(C(=O)c1cc(F)ccc1Oc1cncnc1N1CC2(CCN(C[C@@H]3CC[C@@H](NS(=O)(=O)c4cnn(C)c4)CO3)CC2)C1)C(C)C reads +++ (≥66%)

The measured hERG % Remaining associated with CCN(C(=O)c1cc(F)ccc1Oc1cncnc1N1CC2(CCN(C[C@@H]3CC[C@@H](NS(=O)(=O)CC)CO3)CC2)C1)C(C)C reads +++ (≥66%)

The measured hERG % Remaining associated with CC(C)N(C(=O)c1cc(F)ccc1Oc1cncnc1N1CC2(CCN(C[C@@H]3CC[C@@H](NS(N)(=O)=O)CO3)CC2)C1)C(C)C reads +++ (≥66%)

The measured hERG % Remaining associated with CC(C)N(C(=O)c1cc(F)ccc1Oc1cncnc1N1CC2(CCN(C[C@@H]3CC[C@@H](NS(=O)(=O)C4CC4)CO3)CC2)C1)[C@@H]1CCOC1 reads +++ (≥66%)

The measured hERG % Remaining associated with CC(C)N(C(=O)c1cc(F)ccc1Oc1cncnc1N1CC2(CCN(C[C@@H]3CC[C@@H](NS(=O)(=O)C4COC4)CO3)CC2)C1)C(C)C reads +++ (≥66%)

The measured hERG % Remaining associated with CCNS(=O)(=O)N[C@@H]1CC[C@@H](CN2CCC3(CC2)CN(c2ncncc2Oc2ccc(F)cc2C(=O)N(C(C)C)C2CC(F)(F)C2)C3)OC1 reads +++ (≥66%)

The measured hERG % Remaining associated with CC(C)N(C(=O)c1cc(F)ccc1Oc1cncnc1N1CC2(CCN(C[C@@H]3CC[C@@H](NS(=O)(=O)N4CCC4)CO3)CC2)C1)C1CC(F)(F)C1 reads ++ (233% and ≤66%)

The measured hERG % Remaining associated with CC(C)N(C(=O)c1cc(F)ccc1Oc1cncnc1N1CC2(CCN(C[C@@H]3CC[C@@H](NS(=O)(=O)C4CC4)CO3)CC2)C1)C1CC1 reads ++ (233% and ≤66%)
